# assay_details: H1N1 influenza NS1A inhibitors, functional cell based assay (AID 504329)
# condition_label: percent inhibition, at 12.5 µM, active compounds read high
Out of some 340,000 compounds screened, about 1,000 (0.29%) were called active. These entries were drawn from the full list. Results with a measured potency or affinity are listed apart.
value_type: inhibition (%)
Quick note: give the figure in %, leave out the unit.

Solved cases (4 shown):
> print(dat)
                                   compound  recorded.measurement
1        COC(=O)c1c(C)cc(C)c2c1CC(C)(C)C2=O                  5.46
2      Cc1ccc(-c2nnn(CCOc3cccc(Br)c3)n2)cc1                 -6.07
3  Cc1c(O)ccc(C(=O)CN2CCN(c3ccccc3F)CC2)c1O                  -1.8
4  O=C(CNC(=O)c1cccc(N2C(=O)c3ccccc3C2=O)c1)Nc1ccc(F)c(F)c1                 -11.5

# input compound: CC(C)(C)c1ccc(S(=O)(=O)/N=C2\C=C(NS(=O)(=O)c3ccccc3)C(=O)c3ccccc32)cc1 ; wanted: its inhibition 11.3

# input compound: C/C=C\C=C\C(=O)N1CC2(CC(c3cccc(NC(=O)CC(c4ccccc4)c4ccccc4)c3)=NO2)C[C@H]1C(N)=O (some centres undefined) ; wanted: its inhibition 2.26

# input compound: CCC(=O)Nc1cc(-c2nn(CC(=O)N3CCCCC3)c(=O)c3ccccc23)ccc1N1CCOCC1 ; wanted: its inhibition -7.33

# input compound: CC(=O)c1sc(NC(=O)C2CCCN2S(=O)(=O)c2ccccc2F)nc1C (centres undefined) ; wanted: its inhibition -3.2

# input compound: CCc1ccc(S(=O)(=O)/N=C2\C=C(NS(=O)(=O)c3ccccc3)C(=O)c3ccccc32)cc1 ; wanted: its inhibition 11.2
